Origin of values: patent US20230310428A1

IC50 reference
- measured-target: various mutants of kinase EGFR (BaF3 cell lines stably transfected with kinase) (Homo sapiens, UniProt P00533, T790M/C797S, form not given)
- Construct: other: BaF3 cells stably transfected with EGFR Δ19Del/T790M/C797S; MTS, 48; other: BaF3 cell line stably transfected with EGFR Δ19Del/T790M/C7
- Sequence (P00533 with tags, fused parts or gaps DEL746-750/T790M/C797S, form open): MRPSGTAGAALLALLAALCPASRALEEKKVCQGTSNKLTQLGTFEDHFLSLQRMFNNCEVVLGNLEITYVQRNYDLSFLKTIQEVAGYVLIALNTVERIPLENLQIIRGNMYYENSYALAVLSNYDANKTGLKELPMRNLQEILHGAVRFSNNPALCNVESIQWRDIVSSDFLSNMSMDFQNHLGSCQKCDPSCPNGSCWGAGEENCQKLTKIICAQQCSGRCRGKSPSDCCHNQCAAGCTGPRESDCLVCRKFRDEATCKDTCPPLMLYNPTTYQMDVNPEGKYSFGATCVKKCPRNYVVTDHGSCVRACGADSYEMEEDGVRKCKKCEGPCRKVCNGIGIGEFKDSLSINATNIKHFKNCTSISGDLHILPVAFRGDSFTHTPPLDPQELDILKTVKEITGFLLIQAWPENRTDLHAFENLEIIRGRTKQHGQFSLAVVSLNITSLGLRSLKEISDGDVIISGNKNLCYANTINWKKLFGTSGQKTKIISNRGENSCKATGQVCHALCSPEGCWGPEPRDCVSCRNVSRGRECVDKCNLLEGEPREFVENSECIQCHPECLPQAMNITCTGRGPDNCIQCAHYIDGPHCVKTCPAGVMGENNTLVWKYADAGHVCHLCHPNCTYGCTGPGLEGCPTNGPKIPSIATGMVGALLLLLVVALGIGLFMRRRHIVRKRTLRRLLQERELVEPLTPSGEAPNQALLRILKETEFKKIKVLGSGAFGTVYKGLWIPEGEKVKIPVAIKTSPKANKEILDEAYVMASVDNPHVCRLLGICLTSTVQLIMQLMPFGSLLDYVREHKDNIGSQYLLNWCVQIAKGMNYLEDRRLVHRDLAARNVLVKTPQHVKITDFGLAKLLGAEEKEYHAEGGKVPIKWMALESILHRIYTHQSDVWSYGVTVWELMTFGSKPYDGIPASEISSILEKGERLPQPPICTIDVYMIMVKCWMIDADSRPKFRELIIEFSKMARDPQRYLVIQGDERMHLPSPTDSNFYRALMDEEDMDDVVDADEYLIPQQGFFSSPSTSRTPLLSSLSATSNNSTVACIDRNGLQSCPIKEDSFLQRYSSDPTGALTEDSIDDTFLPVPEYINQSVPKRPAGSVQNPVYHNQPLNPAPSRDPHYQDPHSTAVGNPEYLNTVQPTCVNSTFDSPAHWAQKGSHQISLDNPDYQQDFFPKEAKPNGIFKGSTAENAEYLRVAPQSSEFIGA
- assay-comment: Growth inhibitory activity of compounds on BaF3 cell lines stably transfected with kinase (MTS, 48 h)
- Assay type: cell-based
- assay-conditions: BaF3 cells stably transfected with EGFR Δ19Del/T790M/C797S, read-out: IC50, growth inhibition, Δ19Del/T790M/C797S
measure: IC50

>  <structure-smiles-string>
COc1cc(N2CCC(N3CCN(C)CC3)CC2)c(CC2CC2)cc1Nc1ncc(Br)c(Nc2ccc3nccnc3c2N(C)S(=O)(=O)C2CC2)n1

>  <observed-result>
≤ 50 nM

$$$$
>  <structure-smiles-string>
CCc1cc(Nc2ncc(F)c(Nc3ccc4nccnc4c3N(C)S(C)(=O)=O)n2)c(OC)cc1N1CCN(C)CC1

>  <observed-result>
≤ 50 nM

$$$$
>  <structure-smiles-string>
COc1cc(N2CCC(N3CCN(C)CC3)CC2)c(C)cc1Nc1ncc(Cl)c(Nc2ccc3nccnc3c2N(C)S(=O)(=O)C(F)(F)F)n1

>  <observed-result>
50 to 500 nM

$$$$

* * *

- measured-target: various mutants of kinase EGFR (BaF3 cell lines stably transfected with kinase) (Homo sapiens, UniProt P00533)
- Construct: other: BaF3 cells stably transfected with EGFR Δ19Del; MTS, 48 h; other: BaF3 cell line stably transfected with EGFR Δ19Del
- Sequence (P00533 with tags, fused parts or gaps DEL746-750): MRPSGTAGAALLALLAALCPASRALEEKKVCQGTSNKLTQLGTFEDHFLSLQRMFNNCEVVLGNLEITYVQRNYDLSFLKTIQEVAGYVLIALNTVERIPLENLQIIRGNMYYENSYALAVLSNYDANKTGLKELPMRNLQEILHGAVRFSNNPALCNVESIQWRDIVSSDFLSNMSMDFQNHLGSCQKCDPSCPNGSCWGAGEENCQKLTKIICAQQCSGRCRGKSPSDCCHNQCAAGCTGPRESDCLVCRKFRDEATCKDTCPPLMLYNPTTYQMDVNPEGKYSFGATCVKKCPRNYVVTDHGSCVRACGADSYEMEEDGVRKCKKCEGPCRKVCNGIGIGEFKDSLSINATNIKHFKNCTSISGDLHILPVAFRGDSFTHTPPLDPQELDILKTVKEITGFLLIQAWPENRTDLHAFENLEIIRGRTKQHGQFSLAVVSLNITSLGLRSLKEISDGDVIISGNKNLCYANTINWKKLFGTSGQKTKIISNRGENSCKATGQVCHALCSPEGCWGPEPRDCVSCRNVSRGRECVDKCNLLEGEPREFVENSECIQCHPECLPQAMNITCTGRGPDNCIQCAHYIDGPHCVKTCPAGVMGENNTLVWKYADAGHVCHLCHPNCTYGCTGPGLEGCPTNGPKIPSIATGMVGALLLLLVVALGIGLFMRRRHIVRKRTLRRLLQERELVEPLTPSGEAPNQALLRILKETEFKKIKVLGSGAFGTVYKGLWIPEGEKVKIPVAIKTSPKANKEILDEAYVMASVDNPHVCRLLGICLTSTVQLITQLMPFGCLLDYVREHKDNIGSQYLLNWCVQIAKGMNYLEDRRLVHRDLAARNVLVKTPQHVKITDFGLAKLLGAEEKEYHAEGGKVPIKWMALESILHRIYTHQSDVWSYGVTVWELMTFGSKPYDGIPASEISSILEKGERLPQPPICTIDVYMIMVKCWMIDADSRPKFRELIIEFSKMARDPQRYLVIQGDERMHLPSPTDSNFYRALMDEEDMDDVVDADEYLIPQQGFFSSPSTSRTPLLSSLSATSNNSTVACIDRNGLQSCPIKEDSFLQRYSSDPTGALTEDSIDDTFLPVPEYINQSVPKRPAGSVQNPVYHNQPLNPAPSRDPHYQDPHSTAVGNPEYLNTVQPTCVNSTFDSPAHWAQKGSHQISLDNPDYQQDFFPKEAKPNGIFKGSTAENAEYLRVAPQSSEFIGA
- assay-comment: Growth inhibitory activity of compounds on BaF3 cell lines stably transfected with kinase (MTS, 48 h)
- Type: cell-based
- assay-conditions: BaF3 cells stably transfected with EGFR Δ19Del, read-out: IC50, growth inhibition, Δ19Del

>  <molecule>
COc1cc(N2CCN(C)CC2)c(C)cc1Nc1ncc(Cl)c(Nc2ccc3nccnc3c2N(C)S(C)(=O)=O)n1

>  <IC50>
50 to 500 nM

$$$$
>  <molecule>
CCc1cc(Nc2ncc(Cl)c(Nc3ccc4nccnc4c3N(C)S(=O)(=O)C(F)(F)F)n2)c(OC)cc1N1CCC(N(C)C)C1 (stereo not drawn)

>  <IC50>
500 to 2500 nM

$$$$
>  <molecule>
CN(c1c(Nc2nc(Nc3cnn(C)c3)ncc2Br)ccc2nccnc12)S(C)(=O)=O

>  <IC50>
≤ 50 nM

$$$$
>  <molecule>
COc1cc(N2CCC(O)CC2)ccc1Nc1ncc(Br)c(Nc2ccc3nccnc3c2N(C)S(C)(=O)=O)n1

>  <IC50>
50 to 500 nM

$$$$
>  <molecule>
CCc1cc(Nc2ncc(C3CC3)c(Nc3ccc4nccnc4c3N(C)S(C)(=O)=O)n2)c(OC)cc1N1CCC(N(C)C)CC1

>  <IC50>
≤ 50 nM

$$$$
>  <molecule>
CCc1cc(Nc2ncc(Cl)c(Nc3ccc4nccnc4c3N(C)S(C)(=O)=O)n2)c(OC)cc1N1CCC(N(C)C)C1 (stereo not drawn)

>  <IC50>
≤ 50 nM

$$$$
>  <molecule>
CCc1cc(Nc2ncc(Br)c(Nc3ccc4nccnc4c3N(C)S(=O)(=O)C3CC3)n2)c(OC)cc1N1CCC(N2CCN(C)CC2)CC1

>  <IC50>
≤ 50 nM

$$$$
>  <molecule>
CCc1cc(Nc2ncc(C3CC3)c(Nc3ccc4nccnc4c3N(C)S(C)(=O)=O)n2)c(OC)cc1N1CCC(N(C)C)C1 (stereo not drawn)

>  <IC50>
≤ 50 nM

$$$$
>  <molecule>
CCc1cc(Nc2ncc(Cl)c(Nc3ccc4nccnc4c3N(C)S(C)(=O)=O)n2)c(OC)cc1N1CCN(C)CC1

>  <IC50>
≤ 50 nM

$$$$
>  <molecule>
CCc1cc(Nc2ncc([N+](=O)[O-])c(Nc3ccc4nccnc4c3N(C)S(C)(=O)=O)n2)c(OC)cc1N1CCC(N(C)C)CC1

>  <IC50>
≤ 50 nM

$$$$
>  <molecule>
COc1cc(N2CCN(C)CC2)c(C)cc1Nc1ncc(Cl)c(Nc2ccc3nccnc3c2N(C2CC2)S(C)(=O)=O)n1

>  <IC50>
≤ 50 nM

$$$$
>  <molecule>
COc1cc(N2CCC(N3CCN(C)CC3)CC2)c(C)cc1Nc1ncc(Br)c(Nc2ccc3nccnc3c2N(C)S(=O)(=O)C(F)(F)F)n1

>  <IC50>
500 to 2500 nM

$$$$

* * *

IC50 reference
- measured-target: various mutants of kinase EGFR (BaF3 cell lines stably transfected with kinase) (Homo sapiens, UniProt P00533, T790M, form not given)
- Construct: other: BaF3 cells stably transfected with EGFR Δ19Del/T790M; MTS, 48 h; other: BaF3 cell line stably transfected with EGFR Δ19Del/T790M; MTS, 48
- Sequence (P00533 with tags, fused parts or gaps DEL746-750/T790M, form open): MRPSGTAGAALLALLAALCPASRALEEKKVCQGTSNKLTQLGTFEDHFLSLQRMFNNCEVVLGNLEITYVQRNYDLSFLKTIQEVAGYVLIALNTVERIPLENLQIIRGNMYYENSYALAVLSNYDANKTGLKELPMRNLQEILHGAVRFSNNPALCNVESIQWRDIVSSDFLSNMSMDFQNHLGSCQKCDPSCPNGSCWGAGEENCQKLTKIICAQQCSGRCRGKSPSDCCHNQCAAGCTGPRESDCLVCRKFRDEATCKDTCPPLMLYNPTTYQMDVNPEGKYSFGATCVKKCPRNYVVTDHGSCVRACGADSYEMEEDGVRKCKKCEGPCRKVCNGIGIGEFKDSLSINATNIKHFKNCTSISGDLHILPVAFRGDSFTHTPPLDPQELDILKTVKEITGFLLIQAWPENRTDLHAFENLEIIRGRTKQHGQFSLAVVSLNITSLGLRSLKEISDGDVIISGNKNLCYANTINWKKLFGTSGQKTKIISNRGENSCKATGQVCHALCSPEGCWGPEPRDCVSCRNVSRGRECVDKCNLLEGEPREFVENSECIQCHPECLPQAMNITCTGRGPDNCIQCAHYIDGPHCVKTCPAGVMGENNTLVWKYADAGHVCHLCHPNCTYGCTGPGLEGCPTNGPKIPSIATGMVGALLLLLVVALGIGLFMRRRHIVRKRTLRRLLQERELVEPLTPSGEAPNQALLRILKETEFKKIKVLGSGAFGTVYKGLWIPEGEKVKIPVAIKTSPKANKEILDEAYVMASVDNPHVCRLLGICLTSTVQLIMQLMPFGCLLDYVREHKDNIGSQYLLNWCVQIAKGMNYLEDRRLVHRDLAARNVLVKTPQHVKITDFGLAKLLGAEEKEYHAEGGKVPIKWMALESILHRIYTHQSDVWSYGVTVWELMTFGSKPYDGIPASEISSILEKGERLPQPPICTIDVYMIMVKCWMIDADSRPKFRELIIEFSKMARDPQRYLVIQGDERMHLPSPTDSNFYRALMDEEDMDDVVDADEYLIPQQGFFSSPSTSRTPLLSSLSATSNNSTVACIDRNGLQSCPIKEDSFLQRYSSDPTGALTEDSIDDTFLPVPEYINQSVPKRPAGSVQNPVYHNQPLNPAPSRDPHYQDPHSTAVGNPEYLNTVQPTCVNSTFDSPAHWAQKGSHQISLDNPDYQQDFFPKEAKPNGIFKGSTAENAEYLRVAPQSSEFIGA
- assay-comment: Growth inhibitory activity of compounds on BaF3 cell lines stably transfected with kinase (MTS, 48 h)
- Assay type: cell-based
- assay-conditions: BaF3 cells stably transfected with EGFR Δ19Del/T790M, read-out: IC50, growth inhibition, Δ19Del/T790M
- Description: The activity of compounds against various mutants of kinase EGFR was evaluated by their effect of inhibiting growth of BaF3 cell lines stably transfected with kinase. The specific test method was given as follows: […] 3) Compound test: cells were incubated into a 96-well culture plate, the volume of cytosol was 90 µL, and then 10 µL of the compound at each gradient concentration was added. […] OD values at 490 nm were measured by a microplate reader (VARIOSKAN FLASH, Thermo). […]
measure: IC50

>  <structure-smiles-string>
COc1cc(N2CCN(C)CC2)c(C)cc1Nc1ncc(Cl)c(Nc2ccc3nccnc3c2N(C2CC2)S(C)(=O)=O)n1

>  <observed-result>
50 to 500 nM

$$$$
>  <structure-smiles-string>
Cc1cc(Nc2ncc(Br)c(Nc3ccc4nccnc4c3N(C)S(C)(=O)=O)n2)c(OC(C)C)cc1C1CCN(C)CC1

>  <observed-result>
50 to 500 nM

$$$$
>  <structure-smiles-string>
CCc1cc(Nc2ncc(Br)c(Nc3ccc4nccnc4c3N(C3CC3)S(C)(=O)=O)n2)c(OC(F)(F)F)cc1N1CCC(N2CCN(C)CC2)CC1

>  <observed-result>
≤ 50 nM

$$$$

* * *

- measured-target: various mutants of kinase EGFR (BaF3 cell lines stably transfected with kinase) (Homo sapiens, UniProt P00533, L858R)
- Construct: expressed in transfected cells; host or cells: BaF3
- Sequence (P00533 25-1210 L858R): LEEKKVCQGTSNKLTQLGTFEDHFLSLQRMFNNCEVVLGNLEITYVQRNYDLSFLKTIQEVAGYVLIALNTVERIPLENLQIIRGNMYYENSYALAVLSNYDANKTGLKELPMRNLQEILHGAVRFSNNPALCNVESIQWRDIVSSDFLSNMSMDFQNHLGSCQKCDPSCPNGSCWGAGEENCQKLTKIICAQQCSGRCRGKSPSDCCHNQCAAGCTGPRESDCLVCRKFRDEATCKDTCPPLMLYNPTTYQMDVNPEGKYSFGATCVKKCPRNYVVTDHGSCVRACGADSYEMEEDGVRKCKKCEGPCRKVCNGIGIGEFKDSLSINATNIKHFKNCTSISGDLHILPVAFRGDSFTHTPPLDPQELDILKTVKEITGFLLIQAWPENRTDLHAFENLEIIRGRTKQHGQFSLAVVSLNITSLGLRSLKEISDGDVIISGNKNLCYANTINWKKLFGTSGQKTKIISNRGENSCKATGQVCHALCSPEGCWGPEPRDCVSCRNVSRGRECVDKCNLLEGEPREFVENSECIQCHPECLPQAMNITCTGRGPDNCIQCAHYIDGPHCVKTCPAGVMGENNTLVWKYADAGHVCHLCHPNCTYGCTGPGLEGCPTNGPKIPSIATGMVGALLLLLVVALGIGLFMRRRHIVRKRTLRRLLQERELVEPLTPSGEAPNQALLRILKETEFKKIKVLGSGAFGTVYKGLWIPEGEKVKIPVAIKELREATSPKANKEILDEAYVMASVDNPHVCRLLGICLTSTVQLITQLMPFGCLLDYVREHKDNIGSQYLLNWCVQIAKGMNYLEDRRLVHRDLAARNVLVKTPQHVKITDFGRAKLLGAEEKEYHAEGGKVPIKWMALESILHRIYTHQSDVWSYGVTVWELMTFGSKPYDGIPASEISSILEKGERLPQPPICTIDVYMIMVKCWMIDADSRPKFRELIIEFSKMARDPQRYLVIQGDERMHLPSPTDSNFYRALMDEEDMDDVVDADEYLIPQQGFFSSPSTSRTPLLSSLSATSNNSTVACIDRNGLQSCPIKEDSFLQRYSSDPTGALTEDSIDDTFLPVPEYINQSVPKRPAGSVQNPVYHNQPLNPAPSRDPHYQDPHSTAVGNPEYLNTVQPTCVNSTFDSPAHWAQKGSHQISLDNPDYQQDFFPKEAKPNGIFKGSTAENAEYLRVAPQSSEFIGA
- assay-comment: Growth inhibitory activity of compounds on BaF3 cell lines stably transfected with kinase (MTS, 48 h)
- Format: cell-based
- assay-conditions: BaF3 cell line stably transfected with EGFR L858R, read-out: L858R growth inhibitory activity IC50

>  <compound>
CN1CCN(C2CCN(c3ccc(Nc4ncc(Cl)c(Nc5ccc6nccnc6c5N(C)S(C)(=O)=O)n4)c(F)c3F)CC2)CC1

>  <IC50>
≤ 50 nM

$$$$
>  <compound>
COc1cc(N2CCC(N(C)C)C2)c(C)cc1Nc1ncc(Br)c(Nc2ccc3nccnc3c2N(C2CC2)S(C)(=O)=O)n1 (stereo not shown)

>  <IC50>
50 to 500 nM

$$$$
>  <compound>
COc1ccc(N2CCC(O)CC2)cc1Nc1ncc(F)c(Nc2ccc3nccnc3c2N(C)S(C)(=O)=O)n1

>  <IC50>
500 to 2500 nM

$$$$
>  <compound>
CCn1cc(Nc2ncc(Br)c(Nc3ccc4nccnc4c3N(C)S(C)(=O)=O)n2)cn1

>  <IC50>
50 to 500 nM

$$$$
>  <compound>
CCc1cc(Nc2ncc(Br)c(Nc3ccc4nccnc4c3N(C)S(C)(=O)=O)n2)c(OC)cc1N1CCC(N2CCN(C)CC2)CC1

>  <IC50>
50 to 500 nM

$$$$
>  <compound>
COc1cc(N2CCC(N3CCN(C)CC3)CC2)ccc1Nc1nc(Nc2ccc3nccnc3c2N(C)S(C)(=O)=O)c2sccc2n1

>  <IC50>
500 to 2500 nM

$$$$
>  <compound>
COc1cc(N2CCC(N3CCN(C)CC3)CC2)c(C2CC2)cc1Nc1nccc(Nc2ccc3nccnc3c2N(C)S(C)(=O)=O)n1

>  <IC50>
50 to 500 nM

$$$$

* * *

- measured-target: various mutants of kinase EGFR (BaF3 cell lines stably transfected with kinase) (Homo sapiens, UniProt P00533, L858R)
- Construct: expressed in transfected cells; host or cells: BaF3
- assay-comment: Growth inhibitory activity of compounds on BaF3 cell lines stably transfected with kinase (MTS, 48 h)
- Type: cell-based
- assay-conditions: BaF3 cells stably transfected with EGFR L858R, read-out: IC50, growth inhibition, L858R

>  <molecule>
CCc1cc(Nc2ncc(F)c(Nc3ccc4nccnc4c3N(C)S(C)(=O)=O)n2)c(OC)cc1N1CCC(N(C)C)CC1 [Compound I-184]

>  <IC50>
≤ 50 nM

$$$$
>  <molecule>
CN1CCN(c2ccc(Nc3ncc(Br)c(Nc4ccc5nccnc5c4N(C)S(C)(=O)=O)n3)cn2)CC1 [Compound I-56]

>  <IC50>
≤ 50 nM

$$$$
>  <molecule>
CCc1cc(Nc2ncc(Br)c(Nc3ccc4nccnc4c3N(C)S(=O)(=O)C(F)(F)F)n2)c(OC)nc1N1CCC(N2CCN(C)CC2)CC1 [Compound I-257]

>  <IC50>
500 to 2500 nM

$$$$
>  <molecule>
COc1cc(N2CCC(N3CCN(C)CC3)CC2)c(C)cc1Nc1ncc(Cl)c(Nc2ccc3nccnc3c2N(C2CC2)S(C)(=O)=O)n1 [Compound I-159]

>  <IC50>
≤ 50 nM

$$$$
>  <molecule>
CCc1cc(Nc2ncc(Br)c(Nc3ccc4nccnc4c3N(C)S(C)(=O)=O)n2)c(OC)cc1N1CCC(N(C)C)CC1 [Compound I-16]

>  <IC50>
≤ 50 nM

$$$$
>  <molecule>
CCc1cc(Nc2ncc(C3CC3)c(Nc3ccc4nccnc4c3N(C)S(C)(=O)=O)n2)c(OC)nc1N1CCC(N2CCN(C)CC2)CC1 [Compound I-270]

>  <IC50>
≤ 50 nM

$$$$
